Values were extracted from PubChem BioAssay AID2060900.

# System: 521955-158-R2-J5-PDC complex spheroids, viability;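 also: spheroids also contain HUVEC endothelial cells and mesenchymal stem cells as stroma; compound exposure lasted seven days before the viability read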
# Assay method text: Anticancer human tumor 521955-158-R2-J5-PDC patient-derived pancreatic carcinoma cell line growth inhibition [RAS]
# Experimental context: second compound 0.1 µM; first compound 0.000949 µM; stronger effect = lower value
Metric: viability, T/C (%)
The response must be a number in % with no trailing unit.

Compound	viability, T/C / %
CC1(C)CCC(Nc2ncc(C(F)(F)F)c(-c3c[nH]c4c(P(C)(C)=O)c(C#N)ccc34)n2)CN1 (centres undefined) + C#Cc1c(F)ccc2cc(O)cc(-c3ncc4c(N5CC6CCC(C5)N6)nc(OCC56CCCN5CC(F)C6)nc4c3F)c12	43.5
CCc1c2c(nc3ccc(O)cc13)-c1cc3c(c(=O)n1C2)COC(=O)[C@]3(O)CC + C=CC(=O)N1CCN(c2nc(OCC3CCCN3C)nc3c(F)c(-c4nc(N)cc(C)c4C(F)(F)F)c(Cl)cc23)C(C)C1	63
CC1(C)CCC(Nc2ncc(C(F)(F)F)c(-c3c[nH]c4c(P(C)(C)=O)c(C#N)ccc34)n2)CN1 (centres undefined) + C=CC(=O)N1CCN(c2nc(OCC3CCCN3C)nc3c(F)c(-c4nc(N)cc(C)c4C(F)(F)F)c(Cl)cc23)C(C)C1	90

Input line: Return the recorded viability, T/C value; entry: CCc1c2c(nc3ccc(O)cc13)-c1cc3c(c(=O)n1C2)COC(=O)[C@]3(O)CC + C#Cc1c(F)ccc2cc(O)cc(-c3ncc4c(N5CC6CCC(C5)N6)nc(OCC56CCCN5CC(F)C6)nc4c3F)c12
Output line: 43.4
